System: gACh3.0
Assay: Fluorescence imaging
Assay type: cell-based
Conditions: read-out: EC50 (μM), normalized dose-response curves, HEK293T; n = 3
PROPERTY MEASURED: EC50 (µM)

>  <SMILES STR>
CC(=O)OCC[N+](C)(C)C

>  <NUMBER>
2.2

$$$$

The values you see were collected from paper PMC11703214.
